# TARGET_OR_SYSTEM: CAL PDZ domain (CALP) (UniProt Q9HD26 278-362)
# ASSAY_INFO: fluorescence polarization competition
Where no end group is shown, it is not given here.
OUTCOME_MEASURE: pKi
Give bare numbers, as −log10 of the molar value.

Q: So what does the record say about pKi for Ac-WQTSII (the corresponding N-terminally acetylated peptides were bought; also called WQTSII; best known peptide hexamer) [iCAL35] ?
Ans: 4.83

Measured values drawn from patent US20150250848A1 for this set.
